Assignment: determine reported pIC50 for the given compounds.
- System: Cullin-3 (CUL3) neddylation
- experiment: AlphaLISA assay for Cullin-3 (CUL3) neddylation in TF 1 cells
- Type: cell-based
- conditionParameters: Homo sapiens, TF-1, 3 h, 3 hours treatment
- Protocol: An AiphaLISA assay was performed to evaluate the ability of the compounds to suppress neddylation, which is downstream from DCN-1 and DCN-2. A stronger inhibition of DCN-1 and DCN-2 is expected to result in a suppression of neddylation as shown by a lower AlphaLISA signal. […] The AlphaLISA signal was then read on a VICTOR Nivo Multimode Microplate Reader (Revvity, Hopkinton, MA). […]
pIC50: −log10 of the molar value.

[in] Retrieve pIC50 on Cullin-3 (CUL3) neddylation; query CCN1C(=O)[C@@H](NC(=O)c2cccc(C(F)(F)F)c2)[C@@H](C2CC2)c2c(C(=O)N(C)[C@H](C#N)CCN(C)C3COC3)nn(C3CCOCC3)c21 [Compound I-429]
[out] ≥ 7.00

[in] System Cullin-3 (CUL3) neddylation. Read-out pIC50. Item CCN1C(=O)[C@@H](NC(=O)c2ccc3snnc3c2)[C@@H](C2CC2)c2c(C(=O)N3[C@H](C#N)C[C@H]4C[C@H]43)nn(C3CCOCC3)c21 [Compound I-706] . Report value.
[out] ≥ 7.00

[in] Recall the reported pIC50 of CCN1C(=O)[C@@H](NC(=O)c2cccc(C(F)(F)F)c2)[C@@H](c2ccc(F)cc2)c2c([C@H](CCCO)NC#N)nn(-c3ccccc3)c21 [Compound I-489] on Cullin-3 (CUL3) neddylation and write it down.
[out] ≥ 7.00

----------
- targetOrTestSystem: DCN1 (DCUND1) protein PONY domain (Homo sapiens (Human), UniProt Q96GG9)
- Sequence (Q96GG9 60-248): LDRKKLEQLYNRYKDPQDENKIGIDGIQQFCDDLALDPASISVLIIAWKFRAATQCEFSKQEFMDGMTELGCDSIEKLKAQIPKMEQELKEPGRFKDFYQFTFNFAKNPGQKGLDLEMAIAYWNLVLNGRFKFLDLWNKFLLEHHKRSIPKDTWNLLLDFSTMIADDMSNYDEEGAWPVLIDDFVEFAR
- experiment: TR-FRET assay, DCN1 binding with FAM-labeled probe
- conditionParameters: 24 hr after treatment with compound; read-out: TR FRET IC50 24 hr
- Procedure: A TR-FRET assay was performed to evaluate the ability of the compounds to bind the DCN-1 protein. The TR-FRET assay was designed following the Scott et al. protocol (Scott et al., Nat Chem Biol. 2017 August; 13(8): 850-857. Doi:10.1038/nchembio.2386). […] The TR-FRET ratio between Tb-DCN1 and the FAM-labeled probe was measured in a 384-well opti-plate (Perkin Elmer) using a plate reader (BMG) at 1, 5, and 24 hrs after treatment with compound (final DMSO concentration of 0.1%).
pIC50: −log10 of the molar value.
Kindly state pIC50 for each of the entries shown.

[in] Query pIC50 for CCN1C(=O)[C@@H](NC(=O)c2cccc(C(F)(F)F)c2)[C@@H](C2CC2)c2c(C(=O)N(CC#N)C3CC3)nn(-c3ccccc3)c21
[out] ≥ 6.70

[in] Give pIC50 for CCN1C(=O)[C@@H](NC(=O)c2cccc(C(F)(F)F)c2)[C@@H](c2ccc(F)cc2)c2c([C@H](O)CNC#N)nn(-c3ccccc3)c21 (racemic)
[out] 5.52 to 6.00

[in] Identify pIC50 associated with the molecule CCN1C(=O)[C@@H](NC(=O)c2cccc(C(F)(F)F)c2)[C@@H](c2ccc(F)cc2)c2c(CN(CC#N)C(C)=O)nn(-c3ccccc3)c21
[out] 6.00 to 6.70

[in] Answer with the recorded pIC50 for the molecule listed here: CCN1C(=O)[C@@H](NC(=O)c2cccc(C(F)(F)F)c2)[C@@H](c2ccc(F)cc2)c2c(C(=O)N(C)CC#N)nn(C3CCOCC3)c21
[out] ≥ 6.70

[in] Identify the reported pIC50 for the following entry. CCN1C(=O)[C@H](NC(=O)c2cccc(C(F)(F)F)c2)[C@@H](c2ccc(F)cc2)c2c(CN(C)C#N)nn(-c3ccccc3)c21 (single isomer, unassigned)
[out] 5.52 to 6.00

----------
- targetOrTestSystem: DCN1 (DCUND1) protein PONY domain (Homo sapiens (Human))
- experiment: TR-FRET assay, DCN1 binding with FAM-labeled probe
- conditionParameters: TR FRET IC50 1 hr (nM), 1 hr after treatment with compound
- Description: A TR-FRET assay was performed to evaluate the ability of the compounds to bind the DCN-1 protein. The TR-FRET assay was designed following the Scott et al. protocol (Scott et al., Nat Chem Biol. 2017 August; 13(8): 850-857. Doi:10.1038/nchembio.2386). […] The TR-FRET ratio between Tb-DCN1 and the FAM-labeled probe was measured in a 384-well opti-plate (Perkin Elmer) using a plate reader (BMG) at 1, 5, and 24 hrs after treatment with compound (final DMSO concentration of 0.1%).
Please respond with reported IC50 for every item in the list.

[in] Look up and state reported IC50 for CCN1C(=O)[C@@H](NC(=O)c2nccc(C(F)(F)F)n2)[C@H](c2ccc(F)cc2)c2c(CNC(=O)CC#N)nn(-c3ccccc3)c21 [Compound I-452]
[out] 1000 to 3000 nM

[in] Assign IC50 to the following record: CCN1C(=O)[C@@H](NC(=O)c2cccc(C(F)(F)F)c2)[C@@H](c2ccc(F)cc2)c2c(C(=O)N3CCOC[C@@H]3C#N)nn(-c3ccccc3)c21 (mixture of isomers) [Compound I-297]
[out] 1000 to 3000 nM

[in] Recall and state the measured IC50 for CCN1C(=O)[C@@H](NC(=O)c2cccc(C(F)(F)F)c2)[C@@H](C2CC2)c2c(C(=O)N3CCC[C@H]3C#N)nn(C3CC3)c21 [Compound I-454] .
[out] 1000 to 3000 nM

[in] Supply IC50 value. Item: C=C(CO)C(=O)NCc1nn(-c2ccccc2)c2c1[C@@H](c1ccc(F)cc1)[C@H](NC(=O)c1cccc(C(F)(F)F)c1)C(=O)N2CC [Compound I-106]
[out] 200 to 1000 nM

[in] For the molecule CCN1C(=O)[C@@H](NC(=O)c2cccc(C(F)(F)F)c2)[C@@H](c2ccc(F)cc2)c2c([C@H](O)CNC#N)nn(-c3ccccc3)c21 (racemic) [Compound I-9] , give its reported IC50.
[out] 200 to 1000 nM

[in] Specify IC50 for CCN1C(=O)[C@@H](NC(=O)c2ccn(C(F)(F)F)n2)[C@@H](c2ccc(F)cc2)c2c(C(=O)N3[C@H](C#N)C[C@H]4C[C@H]43)nn(-c3ccccc3)c21 [Compound I-344] and stop.
[out] 200 to 1000 nM

[in] Annotate the molecule CCN1C(=O)[C@@H](NC(=O)c2ccn(C(C)C)n2)[C@@H](C2CC2)c2c(C(=O)N3[C@H](C#N)C[C@H]4C[C@H]43)nn(C3CCOCC3)c21 [Compound I-472] with its measured IC50.
[out] 200 to 1000 nM

[in] Complete the entry with IC50 for CCN1C(=O)[C@@H](NC(=O)[C@@H]2CCN(Cc3ccccc3)C2)[C@@H](C2CC2)c2c(C(=O)N3[C@H](C#N)C[C@H]4C[C@H]43)nn(C3CCOCC3)c21 [Compound I-634]
[out] 1000 to 3000 nM

[in] Item CCN1C(=O)[C@@H](NC(=O)c2cccc(C(F)(F)F)c2)[C@@H](c2ccc(F)cc2)c2c(CCN(C#N)CCO)nn(-c3ccccc3)c21 [Compound I-538] : provide IC50
[out] 200 to 1000 nM

[in] Given the molecule CCN1C(=O)[C@@H](NC(=O)c2cccc(C(F)(F)F)c2)[C@H](c2ccc(F)cc2)c2c(CNC(=O)C(C)C#N)nn(-c3ccccc3)c21 (some centres unmarked) [Compound I-641] , write its reported IC50.
[out] 200 to 1000 nM

[in] Look up IC50 of C=C(COC)C(=O)NCc1nn(-c2ccccc2)c2c1[C@@H](c1ccc(F)cc1)[C@H](NC(=O)c1cccc(C(F)(F)F)c1)C(=O)N2CC [Compound I-109] and report it.
[out] 200 to 1000 nM

----------
- targetOrTestSystem: DCN1 (DCUND1) protein PONY domain (Homo sapiens (Human), UniProt Q96GG9)
- experiment: TR-FRET assay, DCN1 binding with FAM-labeled probe
- conditionParameters: 24 hr after treatment with compound; read-out: TR FRET IC50 24 hr
recordedMetric: IC50

[in] Supply recorded IC50 for C=C(C(=O)NCc1nn(-c2ccccc2)c2c1[C@H](c1ccc(F)cc1)[C@H](NC(=O)c1cccc(C(F)(F)F)c1)C(=O)N2CC)C(C)N1CCOCC1 (mixture of isomers) here.
[out] ≤ 200 nM

[in] Please list IC50 recorded for the molecule C=C(CN1CC2(COC2)C1)C(=O)NCc1nn(-c2ccccc2)c2c1[C@H](c1ccc(F)cc1)[C@H](NC(=O)c1cccc(C(F)(F)F)c1)C(=O)N2CC
[out] ≤ 200 nM

[in] Name the recorded IC50 of the item CCN1C(=O)[C@@H](NC(=O)Cc2cccc(C(F)(F)F)c2)[C@@H](C2CC2)c2c(C(=O)N3[C@H](C#N)C[C@H]4C[C@H]43)nn(C3CCOCC3)c21 in your answer.
[out] 1000 to 3000 nM

[in] Return IC50 for the following molecule: CCN1C(=O)[C@@H](NC(=O)c2cccc(C(F)(F)F)c2)[C@@H](C2CC2)c2c(C(=O)N3CCS(=O)(=O)C[C@H]3C#N)nn(-c3ccccc3)c21
[out] ≤ 200 nM

[in] Give the value of IC50 reported for the following: CCN1C(=O)[C@@H](NC(=O)c2cccc(C(F)(F)F)c2)[C@@H](c2ccc(F)cc2)c2c(CNC(=O)C3=CCCN(C)C3)nn(-c3ccccc3)c21 (racemic)
[out] ≤ 200 nM

Recorded values, source patent US20250163057A1.
